Test system: Enterococcus faecium
Assay: Antibacterial activity against VAN-resistant Enterococcus faecium ATCC 700221 after 18 hrs by agar dilution method
Assay type: functional
Conditions: ATCC 700221, 18 h
Reported MIC values are given for each entry in this list.
resultType: MIC (µg/mL)

- CCc1cc2c3ccc(OC)c(OC)c3c[n+]3c2c2c(cc4c(c12)OCO4)CC3.[Cl-]: 32
- CCCCc1cc2c3ccc(OC)c(OC)c3c(-c3ccccc3)[n+]3c2c2c(cc4c(c12)OCO4)CC3.[Br-]: 1
- CCc1c2c(OC)c(OC)ccc2c2ccc3c4c(cc5c3c2[n+]1CC5)OCO4.[Br-]: 8
